- Tested on: Candida albicans
- Measurement Parameters: 20 µM
- Description: Antifungal activity against Candida albicans ATCC 90028 (CO-ADD:FG_001); MIC in YNB media using NBS plates, by OD630
Entries with a potency or affinity are not part of this list.
Endpoint Label: Inhibition (%)
Answers are plain numbers, in %.

A selection of reference data follows.
Challenge: Entry under review: CC[N+](C)(C)c1cccc(O)c1.[Cl-] [EDROPHONIUM CHLORIDE] . Reported Inhibition?
Response given: 2.22

Challenge: Subsequent entry: CN(C)CCOc1ccc(/C(=C(/CCCl)c2ccccc2)c2ccccc2)cc1.O=C(O)CC(O)(CC(=O)O)C(=O)O [TOREMIFENE CITRATE]
Response given: 1.73

Please supply Inhibition for each of the following items, keeping them in order.
1. Nc1nc2ccc(Cl)cc2c2nc(-c3ccco3)nn12
2. Cl.Cl.OCCN1CCN(CCCN2c3ccccc3Sc3ccc(C(F)(F)F)cc32)CC1 [FLUPHENAZINE HYDROCHLORIDE]

Response given:
6.09
1.45
